Target: Rat recombinant KHK-A (Rattus norvegicus (Rat), UniProt Q02974)
Sequence (Q02974 other isoform, or with tags, fused parts or gaps): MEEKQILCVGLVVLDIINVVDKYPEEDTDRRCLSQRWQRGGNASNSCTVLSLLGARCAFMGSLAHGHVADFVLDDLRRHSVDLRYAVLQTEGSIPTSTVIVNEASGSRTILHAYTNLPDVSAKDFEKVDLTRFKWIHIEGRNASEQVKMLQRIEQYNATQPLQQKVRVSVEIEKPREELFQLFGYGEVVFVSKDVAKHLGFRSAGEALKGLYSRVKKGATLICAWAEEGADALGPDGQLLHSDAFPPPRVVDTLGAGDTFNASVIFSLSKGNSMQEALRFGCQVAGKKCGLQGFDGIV
Experiment: KHK inhibition assay, recombinant isozyme (coupled pyruvate kinase/LDH, NADH absorbance 340 nm)
Settings: recombinant isozyme 6 nM, fructose 2 mM, ATP 0.1 mM
Procedure: Determination of Human and Rat recombinant KHK-A and KHK-C isozyme IC50 Values An assay reagent cocktail was prepared by combining NADH, water, TEA, KCl, MgCl2, PEP, ATP, DTT, coupling enzymes (pyruvate kinase and lactate dehydrogenase, LDH) to final concentrations as shown in Table B. To this was added the relevant KHK isozyme to a final concentration of 6 nM. […] The absorbance at 340 nm was measured via spectrophotometry and inhibition was analyzed using non-linear regression.
Param label: returns YES when IC50 < 4 nM, returns NO otherwise, including exact equality.

- compound: "Cc1c(-c2cnn(CC(=O)N3CCNCC3)c2)nc(N2CC[C@@H]2C(F)(F)F)nc1C(F)(F)F [Compound A1]"
  assigned class: "YES"
- compound: "C[C@H]1[C@H](O)CN1c1nc(-c2cnn(C3CN(C)C3)c2)cc(C(F)F)n1 [Compound A9]"
  assigned class: "NO"
- compound: "C[C@H]1CCN1c1nc(-c2cnn(CC(=O)N3CCNCC3)c2)c(Cl)c(C(F)(F)F)n1 [Compound A4]"
  assigned class: "YES"
- compound: "Cc1c(-c2cnn(C3CN(C)C3)c2)nc(N2C[C@@H](O)[C@@H]2C)nc1C(F)(F)F [Compound A12]"
  assigned class: "YES"
- compound: "C[C@H]1CCN1c1nc(-c2cnn(CC(=O)N3CCNCC3)c2)c(F)c(C(F)(F)F)n1 [Compound A32]"
  assigned class: "NO"
- compound: "CN1CC(n2cc(-c3cc(C(F)(F)F)nc(N4C[C@@H](O)[C@@H]4C(F)(F)F)n3)cn2)C1 (racemic) [Compound A25]"
  assigned class: "NO"
- compound: "Cc1c(-c2cnn(CC(=O)N3CCNCC3)c2)nc(N2CC[C@@H]2C)nc1C(F)(F)F [Compound A3]"
  assigned class: "YES"
- compound: "Cc1c(-c2cnn(C3CN(C)C3)c2)nc(N2C[C@@H](O)[C@@H]2C)nc1C(F)F [Compound A21]"
  assigned class: "YES"
- compound: "COc1c(-c2cnn(C3CN(C)C3)c2)nc(N2C[C@@H](O)[C@@H]2C)nc1C(F)(F)F [Compound A8]"
  assigned class: "NO"
- compound: "Cc1c(-c2cnn(CC(=O)N3CCNCC3)c2)nc(N2CC[C@@H]2C(F)F)nc1C(F)(F)F [Compound A43]"
  assigned class: "NO"
- compound: "Cc1c(-c2cnn(CC(=O)N3CCNCC3)c2)nc(N2CC[C@@H]2C)nc1C(F)F [Compound A24]"
  assigned class: "NO"
